FYI, the data here is from paper PMC11302729.

Test system: Escherichia coli ATCC 25922
Assay: MIC (microdilution) against E. coli
Format: cell-based
Conditions: Escherichia coli, ATCC25922; Table ST1; read-out: MIC E. coli
Experimental: Staphylococcus aureus str. […] The minimal inhibitory concentration was determined using the microdilution method following the guidelines of the European Committee on Antimicrobial Susceptibility Testing ([50]). […] MIC was recorded as the lowest concentration where no growth was detected as measured by optical density at 600 nm (OD600) using Spectramax M5 (Molecular Devices LLC, San Jose, CA, USA). […]
value_type: MIC

[[record]]
compound = "Oc1cc(OCc2ccccc2)ccc1-c1[nH]nc(C(F)(F)F)c1-c1ccccc1 [DPP-4]"
experimental_system = "Escherichia coli ATCC 25922"
value_type = "MIC"
experimental_result = "> 250 µg/mL"

[[record]]
compound = "COc1ccc(-c2[nH]nc(C)c2-c2ccc(Cl)cc2)c(O)c1 [DPP-10]"
experimental_system = "Escherichia coli ATCC 25922"
value_type = "MIC"
experimental_result = "> 250 µg/mL"

[[record]]
compound = "Cc1n[nH]c(-c2ccc(O)cc2O)c1-c1ccc(Cl)cc1 [DPP-9]"
experimental_system = "Escherichia coli ATCC 25922"
value_type = "MIC"
experimental_result = "> 250 µg/mL"

[[record]]
compound = "FC(F)(F)c1n[nH]c(-c2ccccc2)c1-c1ccc(Cl)cc1 [DPP-21]"
experimental_system = "Escherichia coli ATCC 25922"
value_type = "MIC"
experimental_result = "> 250 µg/mL"

[[record]]
compound = "Oc1cc(OCc2ccccc2)ccc1-c1[nH]nc(C(F)(F)F)c1-c1ccc(Cl)cc1 [DPP-8]"
experimental_system = "Escherichia coli ATCC 25922"
value_type = "MIC"
experimental_result = "> 250 µg/mL"

[[record]]
compound = "Oc1ccccc1-c1[nH]nc(C(F)(F)F)c1-c1ccc(Cl)cc1 [DPP-22]"
experimental_system = "Escherichia coli ATCC 25922"
value_type = "MIC"
experimental_result = "> 250 µg/mL"

[[record]]
compound = "COc1ccccc1-c1c(C(F)(F)F)n[nH]c1-c1ccc(O)cc1O [DPP-16]"
experimental_system = "Escherichia coli ATCC 25922"
value_type = "MIC"
experimental_result = "> 250 µg/mL"

[[record]]
compound = "Oc1ccc(-c2onc(C(F)(F)F)c2-c2ccc(Cl)cc2)c(O)c1 [DPP-11]"
experimental_system = "Escherichia coli ATCC 25922"
value_type = "MIC"
experimental_result = "> 250 µg/mL"

[[record]]
compound = "COc1ccc(-c2c(C(F)(F)F)n[nH]c2-c2ccc(OCc3ccccc3)cc2O)cc1 [DPP-15]"
experimental_system = "Escherichia coli ATCC 25922"
value_type = "MIC"
experimental_result = "> 250 µg/mL"

[[record]]
compound = "CCOc1ccc(-c2[nH]nc(C(F)(F)F)c2-c2ccc(OC)c(OC)c2)c(O)c1 [DPP-20]"
experimental_system = "Escherichia coli ATCC 25922"
value_type = "MIC"
experimental_result = "> 250 µg/mL"

[[record]]
compound = "COc1ccc(-c2c(C(F)(F)F)n[nH]c2-c2ccc(O)cc2O)cc1OC [DPP-18]"
experimental_system = "Escherichia coli ATCC 25922"
value_type = "MIC"
experimental_result = "> 250 µg/mL"

[[record]]
compound = "Oc1ccc(-c2[nH]nc(C(F)(F)F)c2-c2ccccc2)c(O)c1 [DPP-1]"
experimental_system = "Escherichia coli ATCC 25922"
value_type = "MIC"
experimental_result = "> 250 µg/mL"

[[record]]
compound = "CCOc1ccc(-c2[nH]nc(C(F)(F)F)c2-c2ccc(OC)cc2)c(O)c1 [DPP-14]"
experimental_system = "Escherichia coli ATCC 25922"
value_type = "MIC"
experimental_result = "> 250 µg/mL"

[[record]]
compound = "COc1ccc(-c2[nH]nc(C(F)(F)F)c2-c2ccc(OC)c(OC)c2)c(O)c1 [DPP-19]"
experimental_system = "Escherichia coli ATCC 25922"
value_type = "MIC"
experimental_result = "> 250 µg/mL"

[[record]]
compound = "CCOc1ccc(-c2[nH]nc(C(F)(F)F)c2-c2ccccc2)c(O)c1 [DPP-3]"
experimental_system = "Escherichia coli ATCC 25922"
value_type = "MIC"
experimental_result = "> 250 µg/mL"


###

Biological target: S. aureus PhoR (Staphylococcus aureus)
Sequence (Q2FXN7 entry or part of it): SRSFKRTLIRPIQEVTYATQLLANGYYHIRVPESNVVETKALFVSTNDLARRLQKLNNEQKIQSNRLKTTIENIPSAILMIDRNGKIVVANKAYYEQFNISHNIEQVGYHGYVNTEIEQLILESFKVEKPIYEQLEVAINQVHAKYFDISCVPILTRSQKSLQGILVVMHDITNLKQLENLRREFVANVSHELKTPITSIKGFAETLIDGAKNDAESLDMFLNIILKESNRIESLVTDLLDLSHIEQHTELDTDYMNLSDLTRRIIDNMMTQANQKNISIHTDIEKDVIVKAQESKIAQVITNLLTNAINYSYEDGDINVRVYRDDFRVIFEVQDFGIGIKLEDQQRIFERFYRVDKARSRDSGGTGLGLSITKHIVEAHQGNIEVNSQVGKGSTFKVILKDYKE
pIC50: −log10 of the molar value.
value_type: pIC50

[[record]]
input_smiles = "COc1ccc(-c2[nH]nc(C(F)(F)F)c2-c2ccc(Cl)cc2)c(O)c1"
experimental_result = 4.26

[[record]]
input_smiles = "Oc1ccc(-c2n[nH]c(C(F)(F)F)c2-c2ccc(Cl)cc2)c(O)c1"
experimental_result = 4.02

[[record]]
input_smiles = "COc1ccc(-c2c(C(F)(F)F)n[nH]c2-c2ccc(O)cc2O)cc1"
experimental_result = 3.48

[[record]]
input_smiles = "COc1ccc(-c2c(C(F)(F)F)n[nH]c2-c2ccc(OC)cc2O)cc1"
experimental_result = 4.05


###

Property: hemolysis at 30 min; scope: individual compounds
Experiment: Haemolysis assay
Assay type: cell-based, sheep
Settings: sheep, sheep red blood cells, 2% suspension; read-out: RBC hemolysis
value_type: hemolysis at 30 min (%)

[[record]]
input_smiles = "Oc1ccc(-c2n[nH]c(C(F)(F)F)c2-c2ccc(Cl)cc2)c(O)c1"
value_type = "hemolysis at 30 min"
experimental_result = 100

[[record]]
input_smiles = "COc1ccc(-c2[nH]nc(C(F)(F)F)c2-c2ccc(Cl)cc2)c(O)c1"
value_type = "hemolysis at 30 min"
experimental_result = 100


###

System: HEK293 cells
Assay: in vitro
Assay type: cell-based
Conditions: LC50/MIC (HEK293 / S. aureus)
Property: Selectivity Index; scope: individual molecules
value_type: Selectivity Index

[[record]]
molecule = "Oc1ccc(-c2onc(C(F)(F)F)c2-c2ccc(Cl)cc2)c(O)c1 [DPP-11]"
experimental_result = 1.10

[[record]]
molecule = "COc1ccc(-c2[nH]nc(C(F)(F)F)c2-c2ccc(Cl)cc2)c(O)c1 [DPP-6]"
experimental_result = 4.58

[[record]]
molecule = "Oc1ccc(-c2[nH]nc(C(F)(F)F)c2-c2ccccc2)c(O)c1 [DPP-1]"
experimental_result = 0.65


###

System: S. aureus str. Newman
Experiment: Membrane permeability using SYTOX-Green, flow cytometry
Format: cell-based
Settings: 1× MIC, 5 min exposure
Checkbox rule: % FITC stained bacteria 1 xMIC lower than 40% = Met; % FITC stained bacteria 1 xMIC not lower than 40% = Not met.

[[record]]
compound = "CCOc1ccc(-c2[nH]nc(C(F)(F)F)c2-c2ccc(Cl)cc2)c(O)c1 [DPP-7]"
class = "Not met"

[[record]]
compound = "Oc1ccc(-c2onc(C(F)(F)F)c2-c2ccc(Cl)cc2)c(O)c1 [DPP-11]"
class = "Met"

[[record]]
compound = "COc1ccc(-c2c(C(F)(F)F)n[nH]c2-c2ccc(OCc3ccccc3)cc2O)cc1 [DPP-15]"
class = "Met"

[[record]]
compound = "CCOc1ccc(-c2[nH]nc(C(F)(F)F)c2-c2ccccc2)c(O)c1 [DPP-3]"
class = "Not met"

[[record]]
compound = "COc1ccc(-c2[nH]nc(C)c2-c2ccc(Cl)cc2)c(O)c1 [DPP-10]"
class = "Met"

[[record]]
compound = "COc1ccc(-c2[nH]nc(C(F)(F)F)c2-c2ccc(Cl)cc2)c(O)c1 [DPP-6]"
class = "Not met"

[[record]]
compound = "Oc1cc(OCc2ccccc2)ccc1-c1[nH]nc(C(F)(F)F)c1-c1ccc(Cl)cc1 [DPP-8]"
class = "Met"

[[record]]
compound = "Cc1n[nH]c(-c2ccc(O)cc2O)c1-c1ccc(Cl)cc1 [DPP-9]"
class = "Not met"


###

Test system: HEK293 cells
Experiment: Cell imaging of HEK293 cells
Assay type: cell-based
Details: LC20, 24 hours exposure, 40× amplification
value_type: Morphological changes of HEK293 cells

[[record]]
compound = "Oc1ccc(-c2n[nH]c(C(F)(F)F)c2-c2ccc(Cl)cc2)c(O)c1 [DPP-5]"
value_type = "Morphological changes of HEK293 cells"
experimental_result = "membrane blebbing"

[[record]]
compound = "CCOc1ccc(-c2[nH]nc(C(F)(F)F)c2-c2ccc(OC)c(OC)c2)c(O)c1 [DPP-20]"
value_type = "Morphological changes of HEK293 cells"
experimental_result = "no morphological changes"

[[record]]
compound = "COc1ccc(-c2[nH]nc(C(F)(F)F)c2-c2ccc(Cl)cc2)c(O)c1 [DPP-6]"
value_type = "Morphological changes of HEK293 cells"
experimental_result = "membrane blebbing"

[[record]]
compound = "CCOc1ccc(-c2[nH]nc(C(F)(F)F)c2-c2ccc(OC)cc2)c(O)c1 [DPP-14]"
value_type = "Morphological changes of HEK293 cells"
experimental_result = "no morphological changes"

